PROCEDURE_DETAILS: Aqueous solubility of the compound at pH 7
Format: physicochemical
Catalogue of molecules with associated solubility
Your answer should be a plain number; it is taken to be in µM.

Before answering, review these 2 worked examples.
INSERT INTO measurements (molecule, numeric_value) VALUES
  ('COc1ccnc2c1C1(CC2)NC(=O)c2c3c(c(O)c(=O)n21)C(=O)N(Cc1ccc(F)c(Cl)c1)CC3 (racemic)', 63),
  ('N#Cc1cccc2c1[C@]1(CC2)NC(=O)c2c3c(c(O)c(=O)n21)C(=O)N(Cc1ccc(F)c(Cl)c1)CC3', 10);

Now consider a different molecule.
Requested field: solubility. Item: O=C1NC(C2CCC2)n2c1c1c(c(O)c2=O)C(=O)N(Cc2ccc(F)c(Cl)c2)CC1 (racemic)
31

* * *

PROCEDURE_DETAILS: Oral bioavailability in Beagle dog at 1 mg/kg
Assay type: ADME, organism-based, Canis lupus familiaris
CONDITION_SET: in vivo
Catalogue of compounds with associated bioavailability
Your answer should be a plain number; it is taken to be in %.

INSERT INTO assay_data (mol_smiles, numeric_value) VALUES
  ('N#Cc1cccc2c1[C@]1(CC2)NC(=O)c2c3c(c(O)c(=O)n21)C(=O)N(Cc1ccc(F)c(Cl)c1)CC3', 40),
  ('O=C1N[C@]2(CC[C@H]3C[C@H]32)n2c1c1c(c(O)c2=O)C(=O)N(Cc2ccc(F)c(Cl)c2)CC1', 15),
  ('C[C@H](O)CN1C(=O)c2c3c(c(O)c(=O)n2[C@@]12CC[C@H]1C[C@H]12)C(=O)N(Cc1ccc(F)c(Cl)c1)CC3', 42);

Now consider a different compound.
Requested field: bioavailability. Item: O=C1c2c(c3n(c(=O)c2O)[C@@H](C2CC2)N(C2CC2)C3=O)CCN1Cc1ccc(F)c(Cl)c1
44

* * *

System: Human immunodeficiency virus type 1 integrase (Human immunodeficiency virus 1), Q7ZJM1 [Q148K]
PROCEDURE_DETAILS: Inhibition of HIV-1 integrase Q148K mutant strand transfer activity assessed as reduction in viral replication
Catalogue of compounds with associated log10 of IP
Heads up, the numbers here are log10 of IP in nM units.

Before answering, review these 4 worked examples.
INSERT INTO measurements (compound, numeric_value) VALUES
  ('O=C1c2c(c3n(c(=O)c2O)C2(CCC4CC42)N(CCN2C(=O)CCC2=O)C3=O)CCN1Cc1ccc(F)c(Cl)c1 (stereo not given)', 0.85),
  ('C[C@H](O)CN1C(=O)c2c3c(c(O)c(=O)n2[C@@]12CC[C@H]1C[C@H]12)C(=O)N(Cc1ccc(F)c(Cl)c1)CC3', 1.00),
  ('O=C1N[C@]2(CC[C@H]3C[C@H]32)n2c1c1c(c(O)c2=O)C(=O)N(Cc2ccc(F)c(Cl)c2)CC1', 2.65),
  ('O=C1c2c(c3n(c(=O)c2O)[C@@H](C2CC2)N(C2CC2)C3=O)CCN1Cc1ccc(F)c(Cl)c1', 2.91);

Now consider a different compound.
Requested field: log10 of IP. Item: N#Cc1cccc2c1[C@]1(CC2)NC(=O)c2c3c(c(O)c(=O)n21)C(=O)N(Cc1ccc(F)c(Cl)c1)CC3
0.95

* * *

PROCEDURE_DETAILS: Aqueous solubility of the compound at pH 7
Type: physicochemical
RESULT_TYPE: solubility (µM)
Your answer should be a plain number; it is taken to be in µM.

Before answering, review these 2 worked examples.
INSERT INTO results (molecule, result_type, value_unit, numeric_value) VALUES
  ('COc1cccc2c1[C@]1(CC2)NC(=O)c2c3c(c(O)c(=O)n21)C(=O)N(Cc1ccc(F)c(Cl)c1)CC3', 'solubility', 'µM', 5),
  ('CN(CCN1C(=O)c2c3c(c(O)c(=O)n2C12CCC1CC12)C(=O)N(Cc1ccc(F)c(Cl)c1)CC3)S(C)(=O)=O (stereo unspecified)', 'solubility', 'µM', 17);

Requested field: solubility. Item: O=C1c2c(c3n(c(=O)c2O)C2(CCC4CC42)N(CCO)C3=O)CCN1Cc1ccc(F)c(Cl)c1 (stereo unspecified)
107

Further, for N#Cc1cccc2c1[C@@]1(CC2)NC(=O)c2c3c(c(O)c(=O)n21)C(=O)N(Cc1ccc(F)c(Cl)c1)CC3 ?
17

Reference for the values: ChEMBL document CHEMBL4011594
